# System: TK-10
# Run description: NCI tumour cell line growth inhibition, 48 h
Calls of active or inactive are those of the source. Rule as the data show it: active = GI50 up to about 1.1 µM and inactive = higher.
Assay readout: GI50

// worked examples, GI50 included
Which GI50 reading was recorded for the compound "CC(C)(CN1CCCCC1)C(=O)/C=C/c1ccc(Cl)c(Cl)c1" ?
1.48 µM (inactive)

Consider the compound shown here: "C[Si](C)(C)C#Cc1cc(-c2nc3ccccc3s2)ccc1N" What is its recorded GI50?
11.7 µM (inactive)

Fill in: GI50 of COC(=O)N/N=C(/CC1(O)C(=O)Nc2ccc([N+](=O)[O-])cc21)c1ccccc1 (stereo unspecified) is ___
24.9 µM (inactive)

Reported GI50 for CC12OC(=O)[C@@]3(O)CCC4C(C[C@H]5O[C@]56CC=CC(=O)[C@]46C)C45OC[C@H]6C(=O)O[C@@H]1C[C@@]6(C)[C@H](C4=O)C23O5 (stereo partly specified) : what is it?
1 µM (active)

Give the measured GI50 of CC(C)(C)[Si](C)(C)OCC1OC(n2cnc3c(NC(=O)c4ccccc4)ncnc32)CC1O (stereo unspecified) .
58.7 µM (inactive)

Entry under review: "O=C1Oc2ccccc2C(=O)/C1=C\Nc1nc(-c2ccccc2)cs1" . Reported GI50?
2.21 µM (inactive)

For COc1ccc(C(O)/C(=N/N)c2nc3ccc(Cl)cc3nc2O)cc1 (stereo unspecified) , what is its reported GI50?
> 100 µM (inactive)

Fill blank: measured GI50 of the compound "Cc1cccc(/C=N\NC(=S)N2CCCCC2)n1" is ____.
0.0156 µM (active)

As a next step, examine the compound that follows.
# GI50 lookup, item "CN(C)c1ccc(C(=C2C=CC(=[N+](C)C)C=C2)c2c(O)c(S(=O)(=O)[O-])cc3cc(S(=O)(=O)O)ccc23)cc1"
> 100 µM (inactive)
